- Test system: S. invicta workers
- procedureSummary: Fumigant toxicity in sealed glass flask
- Format: in vivo, Solenopsis invicta
- conditionNotes: Solenopsis invicta, 24 h, read-out: mean mortality, dosage 1.43 μg/ml, 24 h
parameter: mortality at 1.43 µg/mL

Lookup: Fill in: mortality at 1.43 µg/mL of COC(=O)c1ccccc1[N+](=O)[O-] [M2NB, methyl 2-nitrobenzoate] is ___
Found: 0%

Lookup: Fill in: mortality at 1.43 µg/mL of C=COC(=O)c1ccccc1 [VB, vinyl benzoate] is ___
Found: ~100%

Lookup: Fill in: mortality at 1.43 µg/mL of COC(=O)c1ccccc1Cl [M2CB, methyl 2-chlorobenzoate] is ___
Found: 70 to 80%

Lookup: Fill in: mortality at 1.43 µg/mL of COC(=O)c1cccc(C)c1 [M3MB, methyl 3-methylbenzoate] is ___
Found: ~100%

Lookup: Fill in: mortality at 1.43 µg/mL of CCCOC(=O)c1ccccc1 [nPrB, n-propyl benzoate] is ___
Found: 79.4%

Lookup: Fill in: mortality at 1.43 µg/mL of CCCCOC(=O)c1ccccc1 [nBB, n-butyl benzoate] is ___
Found: 2.34%

Lookup: Fill in: mortality at 1.43 µg/mL of COC(=O)c1ccccc1C [M2MB, methyl 2-methylbenzoate] is ___
Found: 70 to 80%

Lookup: Fill in: mortality at 1.43 µg/mL of COC(=O)c1cccc(OC)c1 [M3MOB, methyl 3-methoxybenzoate] is ___
Found: ~100%

---

Exercise: state measured LC50 (95% CL) for each of the compounds provided.
- Test system: H. halys nymphs
- procedureSummary: Nymphicidal toxicity, treated filter paper in glass vial
- Format: in vivo
- conditionNotes: 3rd stage nymphs, 24 hr

Lookup: Fill in: LC50 (95% CL) of CCCOC(=O)c1ccccc1 [nPrB, n-propyl benzoate] is ___
Found: 2.591 (2.086-3.839) μL/vial

Lookup: Fill in: LC50 (95% CL) of COC(=O)c1cccc(OC)c1 [M3MOB, methyl 3-methoxybenzoate] is ___
Found: 1.509 (1.322-1.792) μL/vial

Lookup: Fill in: LC50 (95% CL) of CCOC(=O)c1ccccc1 [EB, ethyl benzoate] is ___
Found: 1.604 (1.468-1.756) μL/vial

Lookup: Fill in: LC50 (95% CL) of C/C(=N\C#N)N(C)Cc1ccc(Cl)nc1 [AP, acetamiprid, reference compound] is ___
Found: 0.475 (0.301-0.641) μL/vial

Lookup: Fill in: LC50 (95% CL) of CC(COc1ccc(Oc2ccccc2)cc1)Oc1ccccn1 (stereo not drawn) [PF, pyriproxyfen, reference compound] is ___
Found: 1.798 (1.397-2.797) μL/vial

Lookup: Fill in: LC50 (95% CL) of CC(C)COC(=O)c1ccccc1 [iBB, iso-butyl benzoate] is ___
Found: 4.890 (2.845-24.779) μL/vial

---

- Test system: H. halys nymphs
- procedureSummary: Nymphicidal toxicity, treated filter paper in glass vial
- Type: in vivo
- conditionNotes: in vivo
parameter: toxicity against H. halys nymphs (in words)

CCCCCOC(=O)c1ccccc1 [nPeB, n-pentyl benzoate] :: did not show toxicities
CC(C)COC(=O)c1ccccc1 [iBB, iso-butyl benzoate] :: deficient toxicities
O=C(OCc1ccccc1)c1ccccc1 [BB, benzyl benzoate] :: deficient toxicities
CCCCCCOC(=O)c1ccccc1 [nHB, n-hexyl benzoate] :: did not show toxicities
